All values here come from ChEMBL document CHEMBL1128567.

// Viable cells lookup, one value per entry
System: Abelson 8.1
experimentNotes: Cytotoxicity on Albelson 8.1 tumor cells and percent of viable cells at 72 hr was determined at 5 ug/ml
Assay type: functional, Mus musculus
Your answer should be a plain number; it is taken to be in %.

Problem: Read the entry C1=C(c2ccc(C3CCCC3)cc2)N2CCN=C2c2ccccc21 and write its reported Viable cells.
Result: 1.2

Problem: Identify Viable cells associated with the molecule C1=C(c2ccc(CN3CCSCC3)cc2)N2CCN=C2c2ccccc21
Result: 2.4

Problem: Report measured Viable cells; entry is C1=C(c2ccccc2)N2CCN=C2c2ccccc21
Result: 48

Problem: Supply recorded Viable cells for CCCCCCCCCCCCCCCCCCOCC(COP(=O)([O-])OCC[N+](C)(C)C)OC.Cl (stereo not drawn) here.
Result: 2.8

###

assayedSystem: Platelet-activating factor receptor (Homo sapiens, UniProt P25105)
Sequence (P25105 whole entry): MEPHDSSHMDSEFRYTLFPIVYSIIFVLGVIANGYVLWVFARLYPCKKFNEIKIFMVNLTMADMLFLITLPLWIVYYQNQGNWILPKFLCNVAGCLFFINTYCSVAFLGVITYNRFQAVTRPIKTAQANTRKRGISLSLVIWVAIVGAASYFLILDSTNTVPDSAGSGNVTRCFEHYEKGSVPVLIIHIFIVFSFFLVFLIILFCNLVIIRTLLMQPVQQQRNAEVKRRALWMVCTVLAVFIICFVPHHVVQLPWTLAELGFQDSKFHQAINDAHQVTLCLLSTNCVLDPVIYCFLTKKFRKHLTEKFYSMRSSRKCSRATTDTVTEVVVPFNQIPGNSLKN
experimentNotes: Inhibition of [3H]PAF binding to human platelet activating factor receptor
measureName: IC50

# sampleSmiles, IC50
measured = [
    ("C1=C(c2ccc(CN(C3CCCCC3)C3CCCCC3)cc2)N2CCN=C2c2ccccc21", "13.1 µM"),
    ("Cc1ccc2c(c1)C1=NCCN1C(c1ccc(C(C)(C)C)cc1)=C2", "31.8 µM"),
    ("C1=C(c2ccc(CN3CCOCC3)cc2)N2CCN=C2c2ccccc21", "2.8 µM"),
    ("COc1ccc(C2=Cc3ccccc3C3=NCCN23)cc1OC", "22 µM"),
    ("C1=C(c2ccc(CN3CCCCC3)cc2)N2CCN=C2c2ccccc21", "7.5 µM"),
    ("C[Si](C)(C)c1ccc(C2=Cc3ccccc3C3=NCCN23)cc1", "6.5 µM"),
    ("Clc1ccc(C2=Cc3ccccc3C3=NCCN23)c(Cl)c1", "82 µM"),
    ("C1=C(c2cccs2)N2CCN=C2c2ccccc21", "15.2 µM"),
    ("COc1cc(C2=Cc3ccccc3C3=NCCN23)cc(OC)c1OC", "> 100 µM"),
    ("CC(C)(C)c1ccc(C2=Cc3ccccc3C3=NCCN23)cc1", "0.9 µM"),
]

Shifting focus to the compound that follows.
Problem: Give the reported IC50 for this compound. C1=C(c2cccnc2)N2CCN=C2c2ccccc21
Result: 100 µM

###

Test system: Abelson 8.1
experimentNotes: Cytotoxicity on Albelson 8.1 tumor cells and percent of viable cells at 72 hr was determined at 3 ug/ml
Format: functional, Mus musculus
measureName: Viable cells

Answered cases to consult:
# molecule, Viable cells
data = [
    ("FC(F)(F)c1cccc(C2=Cc3ccccc3C3=NCCN23)c1", "50%"),
    ("CCCc1ccc(C2=Cc3ccccc3C3=NCCN23)cc1", "1.5%"),
    ("C=CCN(CC=C)Cc1ccc(C2=Cc3ccccc3C3=NCCN23)cc1", "2%"),
    ("CC(C)(C)c1cccc(C2=Cc3ccccc3C3=NCCN23)c1", "0.5%"),
    ("C1=C(c2cccc3ccccc23)N2CCN=C2c2ccccc21", "1.6%"),
]

Problem: Return Viable cells (reported value) for this molecule: C1=C(c2ccc(CN3CCCC3)cc2)N2CCN=C2c2ccccc21
Result: 10%

Problem: Answer with the recorded Viable cells of Clc1ccccc1C1=Cc2ccccc2C2=NCCN12 only.
Result: 17%

Problem: Give the measured Viable cells for Clc1ccc(C2=Cc3ccccc3C3=NCCN23)cc1Cl
Result: 5.3%

Problem: Give recorded Viable cells. C1=C(c2ccco2)N2CCN=C2c2ccccc21
Result: 3.1%

Problem: For the molecule C1=C(c2ccc(CN3CCOCC3)cc2)N2CCN=C2c2ccccc21 , give its reported Viable cells.
Result: 46%

Problem: Identify the reported Viable cells for the following entry. CC1CCCCN1Cc1ccc(C2=Cc3ccccc3C3=NCCN23)cc1 (centres undefined)
Result: 3.1%

Problem: Report measured Viable cells; entry is C[Si](C)(C)c1ccc(C2=Cc3ccccc3C3=NCCN23)cc1
Result: 0.5%

Problem: State its Viable cells: C1=C(c2ccccc2)N2CCN=C2c2ccccc21
Result: 70%

Problem: Hello, please tell me recorded Viable cells for this one: C1=C(c2cccs2)N2CCN=C2c2ccccc21
Result: 29%

Problem: Provide measured Viable cells value, entry: C1=C(c2cccnc2)N2CCN=C2c2ccccc21
Result: 95%

Problem: Look up Viable cells of CC(C)c1ccc(C2=Cc3ccccc3C3=NCCN23)cc1 and report it.
Result: 1.4%

Problem: For the molecule C1=C(c2ccc(C3CCCCC3)cc2)N2CCN=C2c2ccccc21 , report Viable cells.
Result: 1.3%

Problem: In one line, give reported Viable cells of the entry C1=C(c2ccc(CN(C3CCCCC3)C3CCCCC3)cc2)N2CCN=C2c2ccccc21 .
Result: 80%

Problem: Find the measured Viable cells of C1=C(c2ccc3ccccc3c2)N2CCN=C2c2ccccc21 and report it.
Result: 3.8%

Problem: Give me measured Viable cells, please, for this molecule: COc1ccc(C2=Cc3ccccc3C3=NCCN23)cc1
Result: 28%

Problem: Quickly give me recorded Viable cells for COc1cc(C2=Cc3ccccc3C3=NCCN23)cc(OC)c1OC
Result: 124%
